Biological target: human Cav3.2 channels (Homo sapiens, UniProt O95180)
Construct: human Cav3.2 channel ORF (Open Reading Frame) gene
Sequence (O95180 whole entry): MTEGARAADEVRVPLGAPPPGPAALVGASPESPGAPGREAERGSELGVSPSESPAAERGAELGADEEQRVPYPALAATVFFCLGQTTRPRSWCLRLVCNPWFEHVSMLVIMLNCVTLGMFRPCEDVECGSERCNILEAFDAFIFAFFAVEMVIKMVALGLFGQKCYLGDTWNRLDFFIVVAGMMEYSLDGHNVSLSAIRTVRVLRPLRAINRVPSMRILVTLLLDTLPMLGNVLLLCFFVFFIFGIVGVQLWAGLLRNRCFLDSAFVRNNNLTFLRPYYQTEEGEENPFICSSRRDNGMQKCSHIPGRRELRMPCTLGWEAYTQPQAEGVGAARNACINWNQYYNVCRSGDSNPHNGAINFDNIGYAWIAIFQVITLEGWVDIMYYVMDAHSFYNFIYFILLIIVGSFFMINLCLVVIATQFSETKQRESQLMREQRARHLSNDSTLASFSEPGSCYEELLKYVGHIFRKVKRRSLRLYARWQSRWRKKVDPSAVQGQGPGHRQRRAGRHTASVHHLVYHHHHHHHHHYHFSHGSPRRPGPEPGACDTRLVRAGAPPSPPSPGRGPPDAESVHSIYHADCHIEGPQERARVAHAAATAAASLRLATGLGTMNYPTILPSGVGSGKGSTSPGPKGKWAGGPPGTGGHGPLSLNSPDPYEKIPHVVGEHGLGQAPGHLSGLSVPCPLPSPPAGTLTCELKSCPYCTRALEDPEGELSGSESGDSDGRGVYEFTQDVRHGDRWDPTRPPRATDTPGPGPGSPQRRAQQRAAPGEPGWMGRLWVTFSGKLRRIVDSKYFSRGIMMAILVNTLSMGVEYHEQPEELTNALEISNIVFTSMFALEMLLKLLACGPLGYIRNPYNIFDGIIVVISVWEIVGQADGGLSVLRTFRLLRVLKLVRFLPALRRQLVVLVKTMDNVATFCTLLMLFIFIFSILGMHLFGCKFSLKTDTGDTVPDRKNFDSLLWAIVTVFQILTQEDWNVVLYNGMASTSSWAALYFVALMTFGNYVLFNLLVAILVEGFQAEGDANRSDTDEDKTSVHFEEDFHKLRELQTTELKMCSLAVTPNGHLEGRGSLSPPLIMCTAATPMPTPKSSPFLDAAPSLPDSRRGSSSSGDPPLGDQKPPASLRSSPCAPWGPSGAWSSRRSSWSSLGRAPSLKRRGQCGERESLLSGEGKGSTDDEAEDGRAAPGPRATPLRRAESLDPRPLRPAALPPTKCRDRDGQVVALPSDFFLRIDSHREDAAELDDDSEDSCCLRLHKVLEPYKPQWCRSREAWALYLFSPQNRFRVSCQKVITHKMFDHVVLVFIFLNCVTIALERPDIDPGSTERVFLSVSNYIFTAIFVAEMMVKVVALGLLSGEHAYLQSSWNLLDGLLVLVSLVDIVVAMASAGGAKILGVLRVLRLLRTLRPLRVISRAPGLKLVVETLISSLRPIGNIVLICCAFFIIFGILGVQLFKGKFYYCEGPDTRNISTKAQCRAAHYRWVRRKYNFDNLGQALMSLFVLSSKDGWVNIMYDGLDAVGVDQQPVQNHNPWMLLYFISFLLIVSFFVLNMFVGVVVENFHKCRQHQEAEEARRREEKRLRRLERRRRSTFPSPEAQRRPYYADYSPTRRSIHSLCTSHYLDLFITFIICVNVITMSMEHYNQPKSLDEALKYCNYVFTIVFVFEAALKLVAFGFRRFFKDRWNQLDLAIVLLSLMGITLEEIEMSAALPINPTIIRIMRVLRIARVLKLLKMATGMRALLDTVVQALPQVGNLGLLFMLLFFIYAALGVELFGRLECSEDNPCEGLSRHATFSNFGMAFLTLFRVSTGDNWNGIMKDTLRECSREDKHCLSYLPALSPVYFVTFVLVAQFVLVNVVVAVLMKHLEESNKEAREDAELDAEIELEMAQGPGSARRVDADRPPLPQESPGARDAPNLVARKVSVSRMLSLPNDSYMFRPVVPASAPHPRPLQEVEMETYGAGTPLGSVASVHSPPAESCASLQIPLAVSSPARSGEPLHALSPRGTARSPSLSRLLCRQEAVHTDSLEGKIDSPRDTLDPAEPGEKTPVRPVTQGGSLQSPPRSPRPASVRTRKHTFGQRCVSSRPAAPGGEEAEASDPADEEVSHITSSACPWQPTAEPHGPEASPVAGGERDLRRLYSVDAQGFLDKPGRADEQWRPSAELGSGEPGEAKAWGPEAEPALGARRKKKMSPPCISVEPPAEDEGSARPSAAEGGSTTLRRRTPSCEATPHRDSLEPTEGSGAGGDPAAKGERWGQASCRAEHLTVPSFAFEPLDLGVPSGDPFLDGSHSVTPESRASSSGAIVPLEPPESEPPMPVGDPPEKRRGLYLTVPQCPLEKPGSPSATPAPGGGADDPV
Test: T-type calcium blocking action: intracellular calcium (Fluo-4 AM fluorescence) in HEK293 cells steadily expressing human Cav3.2 channels
Details: HEK293 cells expressing human Cav3.2; KCl-stimulated calcium influx, Fluo-4 fluorescence; Tables 1 to 3
IC50 by entry:

- COMPOUND: "O=C(N[C@@H]1CCN(c2nc(C(F)(F)F)cs2)C1)[C@H]1C[C@@H]1c1nc2ccccc2o1 [Example 47]"
  IC50 [nM]: 350
- COMPOUND: "O=C(Cc1ccc(C2CC2)cc1)N[C@@H]1CCN(c2ccc(F)c(C(F)(F)F)c2)C1 [Example 174]"
  IC50 [nM]: 200
- COMPOUND: "O=C(N[C@H]1CCN(c2ccc(C(F)(F)F)cc2)C1)C1CC1c1nc2ccccc2[nH]1 (single isomer, unassigned) [Example 53]"
  IC50 [nM]: 1000
- COMPOUND: "O=C(N[C@@H]1CCN(c2cncc(C(F)(F)F)c2)C1)C1CC1c1ccc(F)c(F)c1 (single isomer, unassigned) [Example 107B]"
  IC50 [nM]: 560
- COMPOUND: "O=C(Cc1ccc(C2CC2)cc1)N[C@H]1CN(c2nc(C(F)(F)F)cs2)CC12CC2 [Example 8]"
  IC50 [nM]: 200
- COMPOUND: "O=C(Cc1ccc(O)cc1)N[C@@H]1CCN(c2cncc(C(F)(F)F)c2)C1 [Example 22]"
  IC50 [nM]: 1600
- COMPOUND: "Cn1nnc2cc(CC(=O)N[C@@H]3CCN(c4cncc(C(F)(F)F)c4)C3)ccc21 [Example 167]"
  IC50 [nM]: 160
- COMPOUND: "Cc1nccnc1-c1ccc(CC(=O)N[C@@H]2CCN(c3cncc(C(F)(F)F)c3)C2)cc1 [Example 132]"
  IC50 [nM]: 190
- COMPOUND: "CC(C)(C(=O)N[C@@H]1CCN(c2cncc(C(F)(F)F)c2)C1)c1ccc(C2CC2)cc1 [Example 135]"
  IC50 [nM]: 230
- COMPOUND: "CC(C)(O)c1cncc(N2CC[C@@H](NC(=O)Cc3ccc(C4CC4)cc3)C2)c1 [Example 19]"
  IC50 [nM]: 3500

====

# reported log10 of IC50; entries follow
Target: human Cav3.2 channels (Homo sapiens)
Construct: human Cav3.2 channel ORF (Open Reading Frame) gene
Assay: T-type calcium blocking action: intracellular calcium (Fluo-4 AM fluorescence) in HEK293 cells steadily expressing human Cav3.2 channels
Details: HEK293 cells expressing human Cav3.2; KCl-stimulated calcium influx, Fluo-4 fluorescence; Tables 1 to 3
Experimental: T-Type Calcium Blocking Action (1) Construction of Cells Steadily Expressing Human Cav3.2 Channels […] The cells steadily expressing human Cav3.2 channels produced by testing method (1) were seeded on a 96-well plate (Dulbecco's modified Eagle medium (DMEM) medium containing 10% fetal bovine serum (FBS) was used as a medium). […] Then, the cells were further allowed to stand at room temperature under light-shielded conditions for 15 minutes and placed in a microplate reader EnVision (PerkinElmer). […]
REPORTED METRIC: log10 of IC50 (log10 of the value in µM)

- COMPOUND: "O=C(Cc1ccc(C2CC2)cc1)N[C@@H]1CCN(c2nc(C(F)(F)F)co2)C1"
  log10 of IC50: -0.14
- COMPOUND: "N#CC1(NC(=O)Cc2ccc(C3CC3)cc2)CCN(c2cncc(C(F)(F)F)c2)C1 (stereo not drawn)"
  log10 of IC50: -0.01
- COMPOUND: "O=C(Cc1ccc(C2CC2)cc1)N[C@@H]1CC[N+]([O-])(c2cncc(C(F)(F)F)c2)C1 (stereo partly drawn) [Example 134B]"
  log10 of IC50: 0.00
- COMPOUND: "O=C(N[C@@H]1CCN(c2ccc(C(F)(F)F)nc2)C1)C1CC1c1c[nH]c2ccccc12 (single isomer, unassigned)"
  log10 of IC50: -1.16
- COMPOUND: "O=C(Cc1ccc(C2CC2)cc1)NC1(CO)CCN(c2cncc(C(F)(F)F)c2)C1 (stereo not drawn)"
  log10 of IC50: -0.85
- COMPOUND: "O=C1CCN(c2ccc(CC(=O)N[C@@H]3CCN(c4cncc(C(F)(F)F)c4)C3)cc2)CC1"
  log10 of IC50: -0.82
